The measurements presented in this section are drawn from the supplement of paper PMC9170038.

# System: MS2 coat protein
# Assay summary: apparent KD of MS2 coat protein, switch OFF state (with FMN for OFF switches, without FMN for ON switches); designed switch direction (-1 OFF switch, 1 ON switch): 1; higher = weaker reporter binding
# Reported conditions: FMN input: 0 or 200 uM; Eterna round: R93 (includes R88 designs)
Listed here: items and their measured apparent KD of MS2 coat protein.

Sequence string	apparent KD of MS2 coat protein [µM]
GAAAAACAUGAGGAUCACCCAUGUAGAAAUAUGGGAGGAUAUACAAGGACGAAAGUCAAGGUAGAAGGCCUAAAAG [Mat - Same State 1 - Eli mod - 26]	0.0986
CAGAUACAUGAGGAUCACCCAUGUUAGGUAGAACAAGGAUAUCUAGAUAGAUAAAAAUAUAGAGAAGGUGUAUAAC [JR_SS001_Sub207]	0.0242
AGUCAACAUGAGGAUCACCCAUGUCUGAGGGCAUGAGGAUAUCUAGAUGGGCAGCAUGAUAGAGAAGGCAUGCGCC [Betea]	0.199
AGGAAACAUGAGGAUCACCCAUGUAAAAUAAUGGGAGGAUAUGCGAAAAGAAAAAGAAAAGCAGAAGGCCUAAGAA [62%, Something completely different, 4]	0.0986
GAAGACAUAGUUCAGGAUAUAGGAAUAGUCACAUGAGGAUCACCCAUGUGCAUUUAUAUGCGCACUUAGAAGGGAGGUAGUUAAU [Mat - Same state - Malcolm Mod - D120]	0.0268
CGGAGACAUGAGGAUCACCCAUGUGAGAAGAGGCGAGGAUAUCGAAAGAAAGAAGAGAAACGAGAAGGCGCGAGUC [salish99-SS1-078]	0.025

----------
# Tested on: K4 kissing-loop RNA reporter;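 also: bound reporter read as fluorescence of individual clusters on recovered sequencing chips by microscopy, with normalized cluster intensities fitted with a binding model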
# Assay summary: apparent KD of K4 kissing-loop reporter; higher = weaker reporter binding
# Reported conditions: Eterna round: R107; input ligand: none
Returns one of 1.0 or 0.0; 1.0 when apparent KD of K4 kissing-loop reporter is >= 200 nM.

Sequence string	Group label
GAUAUAGUGAUGUUAUAUACUGAUAGACAACGAGGACCGGUACGGCCGCCACUCGAGAGGGUGAAAAUGAUGAUAAAAUAAUAAU [#01 K4 Tryptophan A Exclusion]	1.0
UACAUAUCACUUUUUCUACAAUUAUUUAGUCAGGAUAUCGAUUAAACGAGAAGGGACAUUAUCAAGUGAUGUUUGAUAAUUCAAA [JR_Nu_SSFMNA_Sub028]	0.0
GGGAUGUAGGGAAGGAGCGCUUUGCGAAUAUUAAUGAGUGAUGUUCGUAGAUAUUUGUAAUGGCAGGUAGGUCGCCCUAUAUCCC [Skye_SS_AB]	0.0
GCCAGAGCGCGAAGGAGCGCCGUGACAGGUUACUGCCUUGGGCAGUGAUGUUGCUCAAUCUGGCAGGUAGGUCGCGUGCUCUGGC	1.0
AACACUCUGGGAGUGAUGUUCUCAAAUAACCGAGGACCGGUACGGCCGCCACUCGGAAAAGAGUGAGUCCUACGAAAAGUAGGAC [Omei inspired 3]	1.0
UGUACCGAGUCAGGAUAUCAACGACUGACAAAGUCGGUCGAAUAUCCAGUGAUGUUGGAAAAUAAAUGAGAAGGGACUUGGUACU [FmnBS 12 #SwitchBubble #StaticStem]	1.0
UUUGCAAAGUCGGCCGCCACUCCGGGCCCUAUAAAUGGGCGCAGUGAUGUUGCGGCUAGGCCUCUGAGGACCGGGACUUUGUAAA [Inusleve]	0.0
AAUUCUCUUUUUGAUACCAGCGAAUCUGAGUGAUGUUCUAAGCCAUACAAUUGAGUAAAUCGCCCUUGGCAGCAAUUCGUGGGUG [theeternabot_exclusion_KL_Theo_B_20]	1.0
CAUACGCAUGGAGGAUAUGAGAUUACUCAUAUUACCCUGUAACAGGUAUCUCAGUGAUGUUGAGACUCAGAAGGCCAUGUGUAUG [Ex FMN B 22]	1.0
GGUAGCAUGGCGGCCGCCACUACCUAGUGAUGUUAGGCUGUGGACAUAGGAGCAAGACAAAUAUGUAGGACCGGGCCAUGCUACC	0.0
UGAUACCAGACUGAUACCAGCAAGUGAUGUUUGUUGAUCUAUGCAGUCAAAGACUGCUCUUGCCCUUGGCAGCAGUCUGGUAUCU [TheoBX 28 #SwitchBubble #StaticStem]	1.0
